Target: human S1P5 V115L mutant (Homo sapiens, UniProt Q9H228, V115L)
Sequence (Q9H228 whole entry V115L): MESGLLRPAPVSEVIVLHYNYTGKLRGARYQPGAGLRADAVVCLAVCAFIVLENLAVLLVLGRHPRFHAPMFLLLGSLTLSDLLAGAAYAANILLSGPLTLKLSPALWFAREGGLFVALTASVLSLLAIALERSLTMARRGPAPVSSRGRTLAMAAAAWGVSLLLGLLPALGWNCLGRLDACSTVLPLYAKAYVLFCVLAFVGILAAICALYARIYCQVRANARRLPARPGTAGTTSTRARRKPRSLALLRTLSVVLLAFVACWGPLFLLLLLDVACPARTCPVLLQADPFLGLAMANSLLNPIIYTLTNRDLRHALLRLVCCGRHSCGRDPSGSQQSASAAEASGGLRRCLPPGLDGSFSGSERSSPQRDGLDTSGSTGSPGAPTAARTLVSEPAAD
Experiment: BRET-based cAMP Gi signaling assay, S1P5 V115L
Conditions: ONO, pEC50, M, V115L; inverse agonism; mean ± SD, n=3
ASSAY READOUT: pEC50
Please treat pEC50 as minus the base-10 logarithm of the molar concentration.

Fill in reported pEC50 for this entry: "O=C(O)CCCN1CCc2cccc(OCCc3cccc4ccccc34)c2CC1"
7.60

----------
Target: human S1P5 L292V mutant (Homo sapiens, UniProt Q9H228, L292V)
Sequence (Q9H228 whole entry L292V): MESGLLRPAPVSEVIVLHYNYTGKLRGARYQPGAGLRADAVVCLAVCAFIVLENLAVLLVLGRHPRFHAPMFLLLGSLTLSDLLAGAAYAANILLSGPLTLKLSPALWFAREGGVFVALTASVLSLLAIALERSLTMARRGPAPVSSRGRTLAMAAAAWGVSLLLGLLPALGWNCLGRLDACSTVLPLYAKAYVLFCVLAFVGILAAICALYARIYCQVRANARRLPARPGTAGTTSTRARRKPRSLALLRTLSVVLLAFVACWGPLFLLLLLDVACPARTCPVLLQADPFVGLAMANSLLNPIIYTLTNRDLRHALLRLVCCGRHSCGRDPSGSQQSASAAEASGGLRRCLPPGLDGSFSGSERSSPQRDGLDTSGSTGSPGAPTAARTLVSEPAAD
Test: BRET-based cAMP Gi signaling assay, S1P5 L292V
Conditions: ONO, pEC50, M, L292V; inverse agonism; mean ± SD, n=3
ASSAY READOUT: pEC50
The quantity pEC50 is defined as the negative base-10 logarithm of the molar concentration.

Tell us which pEC50 value is on record for "O=C(O)CCCN1CCc2cccc(OCCc3cccc4ccccc34)c2CC1"
7.63

----------
Biological target: human S1P5 V115A mutant (Homo sapiens, UniProt Q9H228, V115A)
Sequence (Q9H228 whole entry V115A): as the sequence (Q9H228 whole entry V115L) above, with L115A counted along it
Assay: BRET-based cAMP Gi signaling assay, S1P5 V115A
Details: ONO, pEC50, M, V115A; inverse agonism; mean ± SD, n=3
ASSAY READOUT: pEC50
// pEC50 here means minus log10 of the molar concentration (mol/L)

Look up pEC50 of "O=C(O)CCCN1CCc2cccc(OCCc3cccc4ccccc34)c2CC1" and report it.
7.53

----------
Target: human S1P5 C43F mutant (Homo sapiens, UniProt Q9H228, C43F)
Sequence (Q9H228 whole entry C43F): as the sequence (Q9H228 whole entry L292V) above, with C43F, V292L counted along it
Experiment: BRET-based cAMP Gi signaling assay, S1P5 C43F
Settings: ONO, pEC50, M, C43F; inverse agonism; mean ± SD, n=3
ASSAY READOUT: EC50 (nM)
Report the value in nM with no unit label.

Provide the reported EC50 (system: human S1P5 C43F mutant (Homo sapiens, UniProt Q9H228, C43F)) for O=C(O)CCCN1CCc2cccc(OCCc3cccc4ccccc34)c2CC1 [ONO-5430608]
4.47

----------
Target: human S1P5 T79A mutant (Homo sapiens, UniProt Q9H228, T79A)
Sequence (Q9H228 whole entry T79A): as the sequence (Q9H228 whole entry V115L) above, with T79A, L115V counted along it
Assay: BRET-based cAMP Gi signaling assay, S1P5 T79A
Settings: ONO, pEC50, M, T79A; inverse agonism; mean ± SD, n=3
ASSAY READOUT: pEC50
Note: pEC50 values are expressed as the negative base-10 logarithm of concentration in M.

Indicate the recorded pEC50 value for this molecule: "O=C(O)CCCN1CCc2cccc(OCCc3cccc4ccccc34)c2CC1"
8.29

----------
Target: human S1P5 Y89W mutant (Homo sapiens, UniProt Q9H228, Y89W)
Sequence (Q9H228 whole entry Y89W): as the sequence (Q9H228 whole entry V115L) above, with Y89W, L115V counted along it
Assay: BRET-based cAMP Gi signaling assay, S1P5 Y89W
Conditions: ONO, pEC50, M, Y89W; inverse agonism; mean ± SD, n=3
ASSAY READOUT: EC50 (nM)
Quick reminder: number only, in nM, skip the unit.

# return EC50 of "O=C(O)CCCN1CCc2cccc(OCCc3cccc4ccccc34)c2CC1" (system: human S1P5 Y89W mutant (Homo sapiens, UniProt Q9H228, Y89W))
2.95

----------
Target: human S1P5 L318Q mutant (Homo sapiens, UniProt Q9H228, L318Q)
Sequence (Q9H228 whole entry L318Q): as the sequence (Q9H228 whole entry L292V) above, with V292L, L318Q counted along it
Assay: BRET-based cAMP Gi signaling assay, S1P5 L318Q
Conditions: ONO, pEC50, M, L318Q; inverse agonism; mean ± SD, n=3
ASSAY READOUT: EC50 (nM)
Write it as a number; the unit nM goes unstated.

Name the recorded EC50 of the compound listed here: "O=C(O)CCCN1CCc2cccc(OCCc3cccc4ccccc34)c2CC1"
22.4
